The values you see were collected from BindingDB's records for doi:10.1016/j.bmcl.2005.01.051.

Field: pIC50. Provide a value for each of the compounds that follow.
Assay: Inhibition of alphaIIb-beta3 integrin mediated platelet aggregation (PLAGGIN15)
pIC50: −log10 of the molar value.

Record COc1ccc([C@@H](CCCC(=O)CCc2ccc3c(n2)NCCC3)CC(=O)O)cn1 , field pIC50: < 5.00

Record COc1ccc([C@@H](CCC[C@H](O)CCc2ccc3c(n2)NCCC3)CC(=O)O)cn1 , field pIC50: < 5.00

Record COc1ccc([C@@H](CCC[C@@H](O)CCc2ccc3c(n2)NCCC3)CC(=O)O)cn1 , field pIC50: < 5.00
